Assay: Plasma protein binding, equilibrium dialysis (RED), rat
Format: in vitro ADME
Conditions: Rat plasma, drug 5 μM; read-out: % bound (converted)
Description: Brain and plasma drug binding were performed by equilibrium dialysis using the Rapid Equilibrium Dialysis (RED) device. […] After incubation, the concentration of drug in plasma/brain homogenate and buffer was determined by LC-MS/MS. Recovery is calculated by determining the total amount of drug in 50 μL of plasma and 50 μL buffer after the incubation and comparing that value to the amount of drug in 50 μL of a plasma sample that was not incubated. […]
measurement type: fraction unbound at 5 μM
Give the figure only, with no unit attached.

molecule	result
CCO[C@H]1CC[C@H](n2cc(NC(=O)c3csc(-c4cn[nH]c4)n3)c(-c3ncccn3)n2)CC1	0.037

Let us move to another entry and its fraction unbound at 5 μM.
// fraction unbound at 5 μM value for CCO[C@H]1CC[C@H](n2cc(NC(=O)c3csc(-c4cn[nH]c4)n3)c(-c3nc(F)ccc3F)n2)CC1 [Comparison-1, reference compound] : 0.007

====

Assay: Plasma protein binding, equilibrium dialysis (RED), dog
Assay type: in vitro ADME
Details: drug 5 μM
measurement type: recovery at 5 μM (%)
Record the value in %, omitting the unit from your answer.

compound	measurement units	recovery at 5 μM
CCO[C@H]1CC[C@H](n2cc(NC(=O)c3csc(-c4cn[nH]c4)n3)c(-c3nc(F)ccc3F)n2)CC1 [Comparison-1, reference compound]	%	77.2

// next entry
Briefly, recovery at 5 μM measured for CCO[C@H]1CC[C@H](n2cc(NC(=O)c3csc(-c4cn[nH]c4)n3)c(-c3ncccn3)n2)CC1 : 70.7

====

Each entry below carries its reported pEC50.
Test system: IL23p19 in THP-1 Cells
Assay: LPS induced IL23p19 in THP-1 cells (IFNγ primed), ELISA
Assay type: cell-based
Conditions: Homo sapiens; THP-1 cells IFNγ primed, LPS 1 μg/mL, 18 h; read-out: IL23-p19 ELISA, THP1-IFNy, LPS, 10 pt EC50
Kindly note that pEC50 refers to -log10 of the concentration in mol/L and answer with the value alone.

molecule	pEC50
CCO[C@H]1CC[C@H](n2cc(NC(=O)c3csc(-c4cn[nH]c4)n3)c(-c3ncccn3)n2)CC1 [Compound I-1]	8.10

Then this molecule:
CCO[C@H]1CC[C@H](n2cc(NC(=O)c3csc(-c4cnn(COP(=O)(O)O)c4)n3)c(-c3ncccn3)n2)CC1 [Compound I-2] yielded pEC50 of 7.96

====

Target: IRAK4 (Homo sapiens, UniProt Q9NWZ3)
Construct: purchased Signalchem I12-10G-20
Sequence (Q9NWZ3 1-460): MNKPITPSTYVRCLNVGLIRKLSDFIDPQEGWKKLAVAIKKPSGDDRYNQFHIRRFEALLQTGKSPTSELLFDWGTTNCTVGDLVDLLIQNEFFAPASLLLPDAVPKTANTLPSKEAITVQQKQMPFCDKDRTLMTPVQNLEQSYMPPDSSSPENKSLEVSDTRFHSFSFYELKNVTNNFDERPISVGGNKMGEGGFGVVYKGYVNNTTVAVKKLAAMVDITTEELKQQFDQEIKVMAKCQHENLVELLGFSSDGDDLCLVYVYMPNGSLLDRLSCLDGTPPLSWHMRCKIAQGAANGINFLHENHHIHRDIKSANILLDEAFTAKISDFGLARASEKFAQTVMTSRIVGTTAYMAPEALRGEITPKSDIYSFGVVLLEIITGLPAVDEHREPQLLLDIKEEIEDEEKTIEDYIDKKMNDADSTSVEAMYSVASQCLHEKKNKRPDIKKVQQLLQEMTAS
Assay: IRAK4 ADP-Glo kinase assay
Format: biochemical
Settings: read-out: IRAK4 ADP-Glo Kinase, 8 pt EC50
Listing of entries alongside the reported EC50.
Express your answer in nM, writing the number without its unit.

molecule	measured on	measurement units	EC50
CCO[C@H]1CC[C@H](n2cc(NC(=O)c3csc(-c4cnn(COP(=O)(O)O)c4)n3)c(-c3ncccn3)n2)CC1 [Compound I-2]	IRAK4 (Homo sapiens, UniProt Q9NWZ3)	nM	46.4
CCO[C@H]1CC[C@H](n2cc(NC(=O)c3csc(-c4cn[nH]c4)n3)c(-c3ncccn3)n2)CC1 [Compound I-1]	IRAK4 (Homo sapiens, UniProt Q9NWZ3)	nM	7
CCO[C@H]1CC[C@H](n2cc(NC(=O)c3csc(-c4cnn(COP(=O)(O)O)c4)n3)c(-c3ncccn3)n2)CC1 [Compound I-3]	IRAK4 (Homo sapiens, UniProt Q9NWZ3)	nM	128

Continue with the next molecule.
EC50 in this record for CCO[C@H]1CC[C@H](n2cc(NC(=O)c3csc(-c4cn[nH]c4)n3)c(-c3ncccn3)n2)CC1 [Compound I-4] : 18.8

Attribution: patent US12384775B2
